Assay Summary: Plasma pharmacokinetics after a single oral dose, LC/MS/MS
Assay type: in vivo, non-tumored scid mice
Condition Info: scid, mouse, po, 10 mg/kg
Property Measured: AUC(0-t) (µM·h)
Numeric only. Scale: µM·h

Item: COc1cc(Nc2ncc3c(n2)-c2ccc(Cl)cc2C(c2c(F)cccc2OC)=NC3)ccc1C(=O)O | AUC(0-t): 39

###

Assay Summary: Plasma pharmacokinetics after a single oral dose, LC/MS/MS
Format: in vivo, non-tumored scid mice
Condition Info: scid, mouse, po, 20.8 mg/kg
Property Measured: concentration at 12 h (nM)
Numeric only. Scale: nM

Item: COc1cc(Nc2ncc3c(n2)-c2ccc(Cl)cc2C(c2c(F)cccc2OC)=NC3)ccc1C(=O)O | concentration at 12 h: 1800

###

Tested on: CHLA-119 neuroblastoma cell line
Assay Summary: DIMSCAN in vitro testing, 96 h
Assay type: cell-based
Condition Info: Neuroblastoma cell, 96 h, read-out: Absolute IC50
Property Measured: IC50 (nM)
Numeric only. Scale: nM

Item: COc1cc(Nc2ncc3c(n2)-c2ccc(Cl)cc2C(c2c(F)cccc2OC)=NC3)ccc1C(=O)O [MLN8237] | IC50: 22

###

System: SMS-LHN neuroblastoma cell line
Assay Summary: DIMSCAN in vitro testing, 96 h
Assay type: cell-based
Condition Info: Neuroblastoma cell, 96 h, read-out: Absolute IC50
Property Measured: IC50 (µM)
Numeric only. Scale: µM

Item: COc1cc(Nc2ncc3c(n2)-c2ccc(Cl)cc2C(c2c(F)cccc2OC)=NC3)ccc1C(=O)O | IC50: 0.032

###

Assay Summary: Plasma pharmacokinetics after a single oral dose, LC/MS/MS
Type: in vivo, non-tumored scid mice
Condition Info: scid, mouse, po, 20.8 mg/kg
Property Measured: Tmax (min)
Numeric only. Scale: min

Item: COc1cc(Nc2ncc3c(n2)-c2ccc(Cl)cc2C(c2c(F)cccc2OC)=NC3)ccc1C(=O)O | Tmax: 30

###

System: CHLA-122 neuroblastoma cell line
Assay Summary: DIMSCAN in vitro testing, 96 h
Type: cell-based
Condition Info: Neuroblastoma cell, 96 h, read-out: Relative IC50
Property Measured: pIC50
When answering, recall that pIC50 equals minus log10 of the concentration in mol/L, and write that number alone.

Item: COc1cc(Nc2ncc3c(n2)-c2ccc(Cl)cc2C(c2c(F)cccc2OC)=NC3)ccc1C(=O)O | pIC50: 7.77

###

System: SMS-MSN neuroblastoma cell line
Assay Summary: DIMSCAN in vitro testing, 96 h
Assay type: cell-based
Condition Info: Neuroblastoma cell, 96 h, read-out: Relative IC50
Property Measured: pIC50
When answering, recall that pIC50 equals minus log10 of the concentration in mol/L, and write that number alone.

Item: COc1cc(Nc2ncc3c(n2)-c2ccc(Cl)cc2C(c2c(F)cccc2OC)=NC3)ccc1C(=O)O [MLN8237] | pIC50: 7.77

###

Assay Summary: Plasma pharmacokinetics after a single oral dose, LC/MS/MS
Assay type: in vivo, non-tumored scid mice
Condition Info: scid, mouse, po, 10 mg/kg, C max, single oral 10 mg/kg, mice
Property Measured: Cmax (µM)
Numeric only. Scale: µM

Item: COc1cc(Nc2ncc3c(n2)-c2ccc(Cl)cc2C(c2c(F)cccc2OC)=NC3)ccc1C(=O)O | Cmax: 15.8

###

Tested on: CHLA-258 Ewing sarcoma cell line
Assay Summary: DIMSCAN in vitro testing, 96 h
Format: cell-based
Condition Info: 96 h, read-out: Absolute IC50
Property Measured: IC50 (nM)
Numeric only. Scale: nM

Entry COc1cc(Nc2ncc3c(n2)-c2ccc(Cl)cc2C(c2c(F)cccc2OC)=NC3)ccc1C(=O)O [MLN8237] , tested on CHLA-258 Ewing sarcoma cell line, has a reported IC50 of 132
